Biological target: UniProtKB P21761
Sequence (P21761 1-393): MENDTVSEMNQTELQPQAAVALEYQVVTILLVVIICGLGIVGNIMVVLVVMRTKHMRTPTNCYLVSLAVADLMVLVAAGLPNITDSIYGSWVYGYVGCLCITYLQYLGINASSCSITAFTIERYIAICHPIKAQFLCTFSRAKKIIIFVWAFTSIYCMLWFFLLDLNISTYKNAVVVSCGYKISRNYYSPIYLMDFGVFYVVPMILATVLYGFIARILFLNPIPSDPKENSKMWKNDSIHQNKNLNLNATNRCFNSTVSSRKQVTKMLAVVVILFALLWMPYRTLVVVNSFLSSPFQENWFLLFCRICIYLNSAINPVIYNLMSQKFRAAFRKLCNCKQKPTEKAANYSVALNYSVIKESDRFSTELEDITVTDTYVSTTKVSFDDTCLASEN
Assay: [3H]TRH competition binding, HEK293 cells expressing TRHR-1
pIC50: −log10 of the molar value. Non-standard residues stand in square brackets, D forms with d. Residues, ends and D or L forms follow the SMILES beside them. pGlu = O=C1CC[C@@H](C(=O)O)N1
metric: pIC50

INSERT INTO assay_data (compound, result) VALUES
  ('NC(=O)[C@@H]1CCCN1C(=O)[C@H](CCC(=O)O)NC(=O)[C@@H]1CCC(=O)N1 [R^2 = Glu, pGlu-Glu-Pro-NH2] ([pGlu]-Glu-Pro-NH2)', '< 3.55'),
  ('NC(=O)[C@@H]1CCCN1C(=O)[C@H](Cc1ccc(O)cc1)NC(=O)[C@@H]1CCC(=O)N1 [R^2 = Tyr, pGlu-Tyr-Pro-NH2] ([pGlu]-Tyr-Pro-NH2)', '< 3.59'),
  ('NC(=O)[C@@H]1CCCN1C(=O)[C@H](Cc1cnc[nH]1)NC(=O)[C@@H]1CCC(=O)N1 [TRH, pGlu-His-Pro-NH2, reference compound]', 7.63);

---

Target: TRH receptor-2 (TRHR-2) (Rattus norvegicus)
Sequence (A6IZR3 1-352): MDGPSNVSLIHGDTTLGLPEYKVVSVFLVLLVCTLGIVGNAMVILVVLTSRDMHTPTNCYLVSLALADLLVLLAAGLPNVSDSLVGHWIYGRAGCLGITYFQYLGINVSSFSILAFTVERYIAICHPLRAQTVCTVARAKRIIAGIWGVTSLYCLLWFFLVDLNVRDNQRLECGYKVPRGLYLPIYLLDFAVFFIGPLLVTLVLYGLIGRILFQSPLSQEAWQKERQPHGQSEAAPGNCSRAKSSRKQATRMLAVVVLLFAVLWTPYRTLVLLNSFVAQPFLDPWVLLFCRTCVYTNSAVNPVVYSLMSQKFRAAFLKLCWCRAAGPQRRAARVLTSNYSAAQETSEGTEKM
Non-standard residues stand in square brackets, D forms with d. Residues, ends and D or L forms follow the SMILES beside them. pGlu = O=C1CC[C@@H](C(=O)O)N1
Examples of molecules with documented IC50 follow.
metric: IC50

INSERT INTO assay_data (molecule, result) VALUES
  ('NC(=O)[C@@H]1CCCN1C(=O)[C@H](Cc1ccc(O)cc1)NC(=O)[C@@H]1CCC(=O)N1 [R^2 = Tyr, pGlu-Tyr-Pro-NH2] ([pGlu]-Tyr-Pro-NH2)', '> 257 µM'),
  ('C[C@@H](O)[C@H](NC(=O)[C@@H]1CCC(=O)N1)C(=O)N1CCC[C@H]1C(N)=O [Thr, reference compound] ([pGlu]-Thr-Pro-NH2)', '> 306 µM'),
  ('N=C(N)NCCC[C@H](NC(=O)[C@@H]1CCC(=O)N1)C(=O)N1CCC[C@H]1C(N)=O [Arg, reference compound] ([pGlu]-Arg-Pro-NH2)', '> 262 µM'),
  ('NC(=O)[C@@H]1CCCN1C(=O)[C@H](CCC(=O)O)NC(=O)[C@@H]1CCC(=O)N1 [R^2 = Glu, pGlu-Glu-Pro-NH2] ([pGlu]-Glu-Pro-NH2)', '> 282 µM'),
  ('CC(C)[C@H](NC(=O)[C@@H]1CCC(=O)N1)C(=O)N1CCC[C@H]1C(N)=O [R^2 = Val, pGlu-Val-Pro-NH2] ([pGlu]-Val-Pro-NH2)', '> 308 µM');
